Target: Mas-related G-protein coupled receptor member X1 (Homo sapiens) (UniProt Q96LB2)
Sequence (Q96LB2 whole entry, looked up): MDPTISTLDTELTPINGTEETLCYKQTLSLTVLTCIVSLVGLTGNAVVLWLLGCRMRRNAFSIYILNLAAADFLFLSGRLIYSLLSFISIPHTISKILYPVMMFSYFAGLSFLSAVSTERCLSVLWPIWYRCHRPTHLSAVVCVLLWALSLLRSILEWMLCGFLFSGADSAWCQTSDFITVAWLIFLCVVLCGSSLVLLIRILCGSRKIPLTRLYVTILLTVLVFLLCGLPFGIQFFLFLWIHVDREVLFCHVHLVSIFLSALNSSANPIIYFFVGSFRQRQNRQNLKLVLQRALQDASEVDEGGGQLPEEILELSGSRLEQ
Test: blockade of BAM8-22-evoked MrgX1 calcium response – HEK293 cells, Fluo-4 calcium flux, primary screen (AID 588676);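 on B-score: peak minus trough fluorescence over baseline after final BAM8-22 challenge near maximal dose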
Settings: Fluo-4, BAM8-22 antagonism, at 10 µM; stronger effect = lower value
Among all 310,000 compounds or so, about 3,900 (1.3%) were called active. The full list was thinned out, with actives kept by preference.
Readout type: B-score

Guide cases for B-score, answers given:
Compound	B-score
O=C(CCn1c(=S)[nH]c2cc3c(cc2c1=O)OCO3)NCc1ccc(Cl)cc1	inactive
Cc1cccc(NC(=O)N(Cc2cc3cc(C)cc(C)c3[nH]c2=O)CC2COCCO2)c1 (configuration not stated)	inactive
Cc1cc(Br)ccc1NC(=O)c1cnc(N2CCN(c3ccccn3)CC2)c2ccccc12	-5.72 (active)
O=C(NC1CC1)C1=C[C@H](c2coc3ccccc3c2=O)C[C@H](OCCCCO)O1	inactive
COc1ccc(/C=N/NC(=O)c2cc(-c3cccc(C)c3)nc3ccccc23)cc1O	inactive
CN(C)C(=O)N=NC(=O)N(C)C	inactive
C/C(=N/NC(=O)CC(=O)N/N=C(\C)c1ccc([N+](=O)[O-])cc1)c1ccc([N+](=O)[O-])cc1	inactive
COc1cc2c(cc1OC)C(Nc1ccc(S(N)(=O)=O)cc1)=NC(C)(C)C2	inactive

Can you give me B-score for all of these, one by one?
1. CCCOc1ccc(CNC(=O)C2CCN(c3nn4c(=O)cc(C)nc4s3)CC2)cc1
2. O=C(NCCCN1CCCC1=O)c1cccc(S(=O)(=O)NCc2ccccc2)c1

OUT:
inactive
inactive

Value sought for every listed compound: B-score.
1. CC(=O)c1cc(-c2ccccc2)n(CC(=O)NC2CCCCC2)c1C
2. O=C(Cc1ccc(Br)cc1)N1CCN(c2ccccn2)CC1
3. O=C(CN1CCN(c2ccc(O)cc2)CC1)Nc1ccc(-c2ccccc2)cc1
4. COc1ccc(C2=NN(C(C)=O)C(c3ccccc3)C2)cc1 (configuration not stated)

OUT:
inactive
inactive
inactive
inactive

Working through the 4 compounds below one at a time, give B-score for each.
1. CCOC(=O)c1sc(NC(=O)CSc2nnc(-c3ccco3)o2)c(C(=O)OCC)c1C
2. O=C(Cn1c(-c2cscn2)nc2ccccc21)Nc1ccc(Cl)cc1
3. COc1cc2c(cc1OC)C(C(C)C)=NC(C)(C)C2
4. CCOc1ccc(Nc2nc(Cc3nnc(SCC(=O)c4ccc(C)cc4)o3)cs2)cc1

OUT:
inactive
inactive
inactive
inactive

Record B-score per entry; entries follow.
1. Nc1nc(NCC2CCCO2)nc(Nc2ccccc2F)c1[N+](=O)[O-] (configuration not stated)
2. Cc1nn(-c2ccccc2)c2c1C(c1ccc(F)cc1)C(C#N)=C(N)O2 (configuration not stated)
3. Cn1nc(C(C)(C)C)c(NC(=O)c2sccc2Cl)c1C(C)(C)C
4. COc1ccccc1C1C(C#N)=C(N)Oc2c1c(-c1ccccc1)nn2-c1ccccc1 (configuration not stated)
5. CCOC(=O)c1c(NC(=O)CNC2CCCc3ccccc32)sc(C(N)=O)c1C (configuration not stated)
6. CCc1ccc2[nH]c(=O)c(Cc3ccccc3)c(O)c2c1
7. O=C(COc1coc(CN2CCN(c3ccccc3)CC2)cc1=O)Nc1ccccc1F
8. Cc1cccc(-[n+]2c(-c3cccc(Br)c3)[nH]c3nc4ccccc4nc32)c1

OUT:
1: inactive; 2: -13.4 (active); 3: inactive; 4: inactive; 5: -4.67 (active); 6: inactive; 7: inactive; 8: inactive

Hey, quick one: what's B-score for each of these?
1. C/C(=N\NC(=O)Cc1ccc(F)cc1)c1ccc(F)cc1
2. O=C(NC1CCN(Cc2ccccc2)CC1)c1cc(Br)c(Br)[nH]1
3. C#C[C@]1(O)CC[C@H]2[C@@H]3CCC4=CC(=O)CC[C@@H]4[C@H]3CC[C@@]21CC
4. COc1ccc(C)cc1Nc1nc(C)nc2c1oc1ccccc12
5. CC(=O)C1=C(C)NC(=O)NC1c1ccc2c(c1)OCO2 (configuration not stated)

OUT:
1: -8.25 (active); 2: inactive; 3: inactive; 4: inactive; 5: inactive

Could you tell me B-score for each of these compounds? They are listed below.
1. Cc1cccc(N(C(=O)c2csnn2)C(C(=O)NCc2ccccc2)c2ccncc2)c1 (configuration not stated)
2. CCOc1cc(/C=N/NC(=O)c2cc(-c3ccccc3)nc3ccccc23)ccc1O
3. CCCCn1c(N)c(N(CC(C)C)C(=O)c2ccc(-n3c(C)ccc3C)cc2)c(=O)[nH]c1=O
4. O=C1CC(c2c(F)cccc2Cl)C(n2cncn2)C(O)=C1C1NCCc2ccccc21 (configuration not stated)
5. COc1ccc(NC(=S)N2N=CCC2c2ccccc2)cc1 (configuration not stated)

OUT:
inactive
inactive
inactive
inactive
-7.31 (active)

Batch: B-score for all items listed.
1. COc1cccc(-c2cc(C(=O)N/N=C/c3ccc(OC)c(COC(C)=O)c3)c3ccccc3n2)c1
2. Cc1cc(Br)ccc1NC(=O)c1sc2ncn(CC(=O)N3CCN(c4ccccn4)CC3)c(=O)c2c1C
3. Cc1cccc(N2CC(C(=O)Nc3ccccc3N3CCCC3)CC2=O)c1C (configuration not stated)
4. Cc1ccccc1OCC(=O)Nc1nc(C)c(C(=O)N(C)C)s1
5. CN(C)CCn1c(=S)[nH]c2ccc(Cl)cc2c1=O

OUT:
["-7.49 (active)", "inactive", "inactive", "inactive", "-7.49 (active)"]

IN: # query: B-score of entry "O=C1CCCN1C(=O)COc1ccc([N+](=O)[O-])cc1"
OUT: inactive
